Where do the numbers come from? From patent US20220119522A1.

Biological target: T1, human TREM2 on the cell surface (human, UniProt Q9NZC2 19-230)
T1 sequence: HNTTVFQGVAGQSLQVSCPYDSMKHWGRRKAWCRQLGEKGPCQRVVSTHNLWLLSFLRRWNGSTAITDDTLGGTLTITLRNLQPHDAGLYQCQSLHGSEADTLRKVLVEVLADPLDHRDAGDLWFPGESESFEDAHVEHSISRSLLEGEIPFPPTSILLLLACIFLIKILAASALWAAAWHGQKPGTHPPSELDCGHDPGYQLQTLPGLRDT
Assay: cell-based or functional assay
measurement-label: Survival EC50 (nM), plate coated mAb, human macrophages

| binder | unit-string | meas-value |
| --- | --- | --- |
| CL0020314 (antibody, V domains shown, also called Clone CL0020314) VH: DVKLVESGGGLVKLGGSLKLSCAASGFTFSSYYMSWVRQTPEKRLELVAAINTNGGRTYYPDTVKGRFTISRDNAKNTLYLQMSSLKSEDTALYYCARESDGGAFAYWGQGTLVTVSA VL: DVVMTQTPLSLPVSLGDQASISCRSSQSLVHSNGNTYLHWYLQKPGQSPKLLIYKVSNRFSGVPDRFSGSGSGTDFTLKISRVEAEDLGVYFCSQNTHVPLTFGAGTKLELK | nM | 1.6 |
| CL0020308 (antibody, V domains shown, also called Clone CL0020308) VH: QVQLKQSGPSLVQPSQSLSITCTVSGFSLTTYGIHWVRQSPGKGLEWLGVIWTGGSTAFNAAFMSRLSITKDNSKSQVFFKMNSLQADDTAIYYCAKVGFHSATDYWGQGTSVTVSS VL: DVLMTQTPLSLPVTLGDQASISCRSSQNLVHSNGNTYLEWYLQKPGQSPKLLIYKVSNRFSGVPDRFSGSGSGTDFTLKISRVEAEDLGLYYCFQGSHVPFTFGSGTKLEIK | nM | 8.9 |
| CL0020315 (antibody, V domains shown, also called Clone CL0020315) VH: EVQLQQSGPELVKPGASVKISCKASGYTFTDYNIHWVKQSHGKSLEWIGYIYPYNGVTGYNQKFKSKATLTVDNSSSTAYMELRSLTSEDSAVYYCARSRVDGDYWGQGTTLTVSS VL: DVVMTQTPLSLPVSLGDQASISCRSSQSLVHSNGNTYLHWYLQKPGQSPKLLIYKISNRFSGVPDRFSGSGSGTDFTLKISRVEAEDLGVYFCSQSTHVPLTFGAGTKLELK | nM | 10.1 |
